Cited source for all entries: patent US20240228562A1

Items are presented alongside their recorded Murine CTGF koff.
- ASSAY_TARGET: T1, Murine CTGF (Mus musculus, UniProt P29268)
- T1 construct: purchased Abbexa
- T1 sequence (P29268 26-348): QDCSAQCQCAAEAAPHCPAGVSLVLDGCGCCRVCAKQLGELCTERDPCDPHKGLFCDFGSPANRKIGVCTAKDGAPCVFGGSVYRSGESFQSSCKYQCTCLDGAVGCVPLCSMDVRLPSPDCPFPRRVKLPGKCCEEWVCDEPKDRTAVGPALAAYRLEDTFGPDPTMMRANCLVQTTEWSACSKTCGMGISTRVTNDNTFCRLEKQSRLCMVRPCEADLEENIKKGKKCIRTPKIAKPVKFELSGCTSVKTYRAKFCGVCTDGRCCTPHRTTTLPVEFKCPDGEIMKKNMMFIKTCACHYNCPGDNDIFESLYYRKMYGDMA
- PROTOCOL_DETAILS: SPR binding kinetics and affinity, murine CTGF
- CONDITION_LABEL: 25° C., 1:1 binding model

MOLECULE	Murine CTGF koff / s⁻¹
SEQ ID NO: 27: optimized CTGF-binding hNGAL lipocalin mutein (protein, lipocalin mutein) QDSTSDLIPAPPLSKVPLQQNFQDNQFQGKWYVVGLAGNYRLREDKDPSKMGATIYELKEDKSYDVTQVQFDDKKCLYVIETFVPGSQPGEFTLGAIKSYPGLTSQLVRVVSTNYNQHAMVFLKKVYGSEEYFHITLYGRTKELTSELKENFIRFSKSLGLPENHIVFPVPIDQCIDG	0.000172
SEQ ID NO: 26: optimized CTGF-binding hNGAL lipocalin mutein (protein, lipocalin mutein) QDSTSDLIPAPPLSKVPLQQNFQDNQFQGKWYVVGLAGNYRLREDKDPSKMGATIYELKEDKSYDVTQVQFDDKKCLYVIETFVPGSQPGEFTLGNIKVYPTLESQLVRVVSTNYNQHAMVFFKKVYQNREVFWITLYGRTKELTSELKENFIRFSKSLGLPENHIVFPVPIDQCIDG	0.000208
